Tested on: RARa:RXR (NR concentration 270 nM, RXRa partner concentration 90 nM)
Assay: PBM binding z-score (relative to random genomic background probes); higher = stronger binding; sequences stand for … in GC…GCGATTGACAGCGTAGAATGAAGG
measurement_name: PBM binding z-score

[
  {
    "input_sequence": "AGTCAAAGTTCAGGACGAGGTAACATAAAGCACG",
    "reported_measurement": 3.33
  },
  {
    "input_sequence": "AATACAGGGTCACCGTAGGCCAGAGTACGCACAG",
    "reported_measurement": 5.28
  },
  {
    "input_sequence": "TTACCAAGGTGAAGGTCGTTCATCCCTCTGTAGA",
    "reported_measurement": 1.55
  },
  {
    "input_sequence": "CGAACTAGGTCAGAACAGGACAGTGACGGATGAT",
    "reported_measurement": 0.633
  },
  {
    "input_sequence": "AGAATGAGGATACCAAAGATCAGGGAAACGCTTG",
    "reported_measurement": -0.216
  },
  {
    "input_sequence": "GCTTGTAGATCAAGCTTAAGAAAGACTAAGCTAA",
    "reported_measurement": -0.0967
  },
  {
    "input_sequence": "CGAACTAGGTCATTGCCAGGACAGTGAATAGTAA",
    "reported_measurement": 1.87
  },
  {
    "input_sequence": "GCGAGTGGGGCAAAGCAGGTTACCATAAGGTTGG",
    "reported_measurement": 0.873
  },
  {
    "input_sequence": "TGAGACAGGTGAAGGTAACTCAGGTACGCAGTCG",
    "reported_measurement": 0.124
  },
  {
    "input_sequence": "GATACAGGGTCAGCTAGAGACCAGAGTATGGAAA",
    "reported_measurement": 2.98
  },
  {
    "input_sequence": "ACTATTATTTGACTTAGGGCAACCGATACGACGC",
    "reported_measurement": 0.728
  },
  {
    "input_sequence": "CCTACTGGGCCAAAAAGGTCATTTATGCCGATAA",
    "reported_measurement": 4.88
  },
  {
    "input_sequence": "CATACAGGGTCAGCTAGGCCAGAATAGGGACGGC",
    "reported_measurement": 2.91
  },
  {
    "input_sequence": "GGAACGAGGGCATTCGAGCTGATAGCATGGCGAT",
    "reported_measurement": -0.000407
  },
  {
    "input_sequence": "TTACCAAGGTGAGCTGAGGTCGTTCATCCAACTC",
    "reported_measurement": 1.82
  }
]

* * *

System: PXR homodimer (NR concentration 270 nM)
Experiment: PBM binding z-score (relative to random genomic background probes); higher = stronger binding; sequences stand for … in GC…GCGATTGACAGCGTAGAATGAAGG
PBM binding z-score overview

[
  {
    "input_sequence": "GCTCGGAGGACAAGGTAAGAGCTTTGTCCGTAGA",
    "PBM binding z-score": -1.14
  },
  {
    "input_sequence": "CTCGAAAGGTCCTGCTCAGGTGAGTATACCAAAC",
    "PBM binding z-score": -0.684
  },
  {
    "input_sequence": "AGTCAAAGTTCAGGACGCGGTAACGTAAAGCACG",
    "PBM binding z-score": 0.876
  },
  {
    "input_sequence": "CGTCCAAGGTCAGCAGGTTAGTGAAAGCGACGTG",
    "PBM binding z-score": 0.49
  },
  {
    "input_sequence": "CCTGCTCGGTCATGGTCAGCTAATCTACAGTATG",
    "PBM binding z-score": -0.822
  },
  {
    "input_sequence": "AGAATGAGGTTACCAAAGATCAGGTAAACGCTTG",
    "PBM binding z-score": -0.0452
  }
]

* * *

System: RARg homodimer (NR concentration 270 nM)
Assay: PBM binding z-score (relative to random genomic background probes); higher = stronger binding; sequences stand for … in GC…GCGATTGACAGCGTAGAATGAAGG
So basically: PBM binding z-score at 5 or higher? That is class 1. Lower than 5? That is class 0.

[
  {
    "input_sequence": "TCGAGTAGGTTACTCGGGGCATTCAGCCAACATA",
    "answer_label": "class 0"
  },
  {
    "input_sequence": "GCTAGTTGGTCAGTCAAAGGTCACACACCGGTCG",
    "answer_label": "class 0"
  },
  {
    "input_sequence": "CGTCCAAGGTCAAGGTCAGTGACAGAGACTCGAA",
    "answer_label": "class 1"
  },
  {
    "input_sequence": "CAAACTAGGTCACGAAAGGCCAAAGTCGAATGAC",
    "answer_label": "class 1"
  },
  {
    "input_sequence": "GCTTACCGGTCAAAGGTTATAGCATGAATAGAAT",
    "answer_label": "class 0"
  },
  {
    "input_sequence": "CGTCTAAGTTCAACTAAGGTAACGTAAAGCACGC",
    "answer_label": "class 0"
  },
  {
    "input_sequence": "GCTTGGAGGACAAGGTCAGAGCTTTGTCCGTAGA",
    "answer_label": "class 0"
  },
  {
    "input_sequence": "TTACCAAGGTTAAGGTCGTTGATCCCTCTGTAGA",
    "answer_label": "class 0"
  },
  {
    "input_sequence": "TCTGCTAGGTCAGTTGGTCAACTAACGAGCTGCC",
    "answer_label": "class 0"
  },
  {
    "input_sequence": "ATCTCTAGGTATCCAAGTTCAGTGAATGCCGAAC",
    "answer_label": "class 0"
  },
  {
    "input_sequence": "TAGCCTAGGTCATGGGCTAGTATACCACGCGAAC",
    "answer_label": "class 0"
  },
  {
    "input_sequence": "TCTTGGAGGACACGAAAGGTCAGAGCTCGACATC",
    "answer_label": "class 1"
  },
  {
    "input_sequence": "AGAATGAGGTTCAGATCAGGGAAACAGAATACAT",
    "answer_label": "class 0"
  },
  {
    "input_sequence": "ATCTCTAGGTAAAGTTCGGTGAAAGATCGATAGA",
    "answer_label": "class 0"
  },
  {
    "input_sequence": "CTTACTGGGCCAAAAAGGTCATTGATGCCGATAA",
    "answer_label": "class 0"
  },
  {
    "input_sequence": "CCGAGTAGGTTATGGGGCATTTAGGCAACGGTGA",
    "answer_label": "class 0"
  },
  {
    "input_sequence": "ACAGACAGGTGAGTGAATGTAACTCAGCTGGACG",
    "answer_label": "class 0"
  },
  {
    "input_sequence": "CGAACGAGGGCATGAGTTGCTAGCAAATGCCGAT",
    "answer_label": "class 0"
  },
  {
    "input_sequence": "TAGACTAGGTCATTCAGGGGCCAGTATAGAAAGC",
    "answer_label": "class 0"
  },
  {
    "input_sequence": "GCTGGTTGGTCAGTAAAAGGTCACACACCGGTCG",
    "answer_label": "class 1"
  },
  {
    "input_sequence": "TCGAGTATGTTACCAATGGGGCATTCAGCTTTCT",
    "answer_label": "class 0"
  },
  {
    "input_sequence": "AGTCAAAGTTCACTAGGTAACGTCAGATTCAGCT",
    "answer_label": "class 1"
  },
  {
    "input_sequence": "CAAACTAGGTCACGAAAGGTCAGAGTCGAATGAC",
    "answer_label": "class 1"
  },
  {
    "input_sequence": "AGTCAAAGTTCAGCTAGGTAACGTAAGATATGCT",
    "answer_label": "class 1"
  },
  {
    "input_sequence": "ACAGACAGGTGAGTGAAGGTACCTCAGCTGGACG",
    "answer_label": "class 0"
  },
  {
    "input_sequence": "CCTGGGAGGACAACAGGAGGTCAGAGCTGCCAGA",
    "answer_label": "class 0"
  },
  {
    "input_sequence": "TCTATTAGTTGAAGGGCAACCTACGAGTCCGTTT",
    "answer_label": "class 0"
  },
  {
    "input_sequence": "ATATGTAGGTTAGCTGGGGTCTTTCAGACTAGGC",
    "answer_label": "class 0"
  },
  {
    "input_sequence": "CCTAGGTGGTCAAGGTCACACACGCTATAGGTAC",
    "answer_label": "class 0"
  },
  {
    "input_sequence": "AGAATGAGGTTACCAAAGATCAGGGTAACGCTTG",
    "answer_label": "class 0"
  },
  {
    "input_sequence": "CGAACTAGGTCAGAACAGGCCAGTGAAGGATGAT",
    "answer_label": "class 0"
  },
  {
    "input_sequence": "GCTAGTTCGTCAGTAAAAGGTCACACACCGGTCG",
    "answer_label": "class 0"
  },
  {
    "input_sequence": "TAGCCTAGGTCATTCAAGGGCCAGTATAGAAAGC",
    "answer_label": "class 0"
  }
]
